Measurement protocol: Potentiometric (pH-metric) LogP and logD profile
Assay type: physicochemical
Protocol conditions: octanol/water, pH 1.2; pH 1.200, Stomach pH
Reported property: logD

COCCOc1cccc([C@@H]2CCN(CCn3cccc3)[C@H](C)[C@H]2COc2ccc3c(c2)C(=O)NC3)c1 [crystalline Form I] : 0.6

* * *

Measurement protocol: Potentiometric (pH-metric) LogP and logD profile
Type: physicochemical
Protocol conditions: octanol/water; pH 11.000
Reported property: logD

COCCOc1cccc([C@@H]2CCN(CCn3cccc3)[C@H](C)[C@H]2COc2ccc3c(c2)C(=O)NC3)c1 [crystalline Form I] : 3.81

* * *

Measurement protocol: Approximate solubility by solvent addition technique
Assay type: physicochemical
Protocol conditions: ethyl acetate, 20 °C, organic solvent or mixture, thermodynamic from solid, heating to 40° C. between solvent aliquots
Reported property: solubility

COCCOc1cccc([C@@H]2CCN(CCn3cccc3)[C@H](C)[C@H]2COc2ccc3c(c2)C(=O)NC3)c1 [free base] : > 200 mg/mL

* * *

Measurement protocol: Potentiometric (pH-metric) LogP and logD profile
Format: physicochemical
Protocol conditions: octanol/water; pH 8.000
Reported property: logD

COCCOc1cccc([C@@H]2CCN(CCn3cccc3)[C@H](C)[C@H]2COc2ccc3c(c2)C(=O)NC3)c1 [crystalline Form I] : 3.62

* * *

Measurement protocol: Approximate solubility by solvent addition technique
Assay type: physicochemical
Protocol conditions: acetone, 20 °C, organic solvent or mixture, thermodynamic from solid, heating to 40° C. between solvent aliquots
Reported property: solubility

COCCOc1cccc([C@@H]2CCN(CCn3cccc3)[C@H](C)[C@H]2COc2ccc3c(c2)C(=O)NC3)c1 [free base] : > 200 mg/mL

* * *

Measurement protocol: Potentiometric (pH-metric) LogP and logD profile
Format: physicochemical
Protocol conditions: octanol/water, pH 7.4; pH 7.400, Blood pH
Reported property: logD

COCCOc1cccc([C@@H]2CCN(CCn3cccc3)[C@H](C)[C@H]2COc2ccc3c(c2)C(=O)NC3)c1 [crystalline Form I] : 3.31

* * *

Measurement protocol: Approximate solubility by solvent addition technique
Type: physicochemical
Protocol conditions: 2-methyl THF, 20 °C, organic solvent or mixture, thermodynamic from solid, heating to 40° C. between solvent aliquots
Reported property: solubility

COCCOc1cccc([C@@H]2CCN(CCn3cccc3)[C@H](C)[C@H]2COc2ccc3c(c2)C(=O)NC3)c1 [free base] : > 200 mg/mL

* * *

Measurement protocol: Potentiometric (pH-metric) LogP and logD profile
Format: physicochemical
Protocol conditions: octanol/water; pH 3.000
Reported property: logD

COCCOc1cccc([C@@H]2CCN(CCn3cccc3)[C@H](C)[C@H]2COc2ccc3c(c2)C(=O)NC3)c1 [crystalline Form I] : 0.61

* * *

Measurement protocol: Spectrometric (UV-metric) pKa
Assay type: physicochemical
Protocol conditions: base; aqueous value by Yasuda-Shedlovsky extrapolation from methanol-water co-solvent; 25.0±0.2° C.; 0.15 M KCl
Reported property: pKa

COCCOc1cccc([C@@H]2CCN(CCn3cccc3)[C@H](C)[C@H]2COc2ccc3c(c2)C(=O)NC3)c1 [crystalline Form I] : 7.74

* * *

Measurement protocol: Approximate solubility by solvent addition technique
Type: physicochemical
Protocol conditions: ethanol:water 75:25 v/v, 20 °C, aqueous with cosolvent or surfactant or cyclodextrin, thermodynamic from solid, Ethanol:Water 75:25 v/v, heating to 40° C. between solvent aliquots
Reported property: solubility

COCCOc1cccc([C@@H]2CCN(CCn3cccc3)[C@H](C)[C@H]2COc2ccc3c(c2)C(=O)NC3)c1 [free base] : > 200 mg/mL
